All values here come from patent US9440982B2.

# test_system: OX1 (Homo sapiens, UniProt O43613)
# Construct: expressed in transfected cells; host or cells: CHO (CHO-OX1, kept under selection antibiotic)
# Sequence (O43613 whole entry): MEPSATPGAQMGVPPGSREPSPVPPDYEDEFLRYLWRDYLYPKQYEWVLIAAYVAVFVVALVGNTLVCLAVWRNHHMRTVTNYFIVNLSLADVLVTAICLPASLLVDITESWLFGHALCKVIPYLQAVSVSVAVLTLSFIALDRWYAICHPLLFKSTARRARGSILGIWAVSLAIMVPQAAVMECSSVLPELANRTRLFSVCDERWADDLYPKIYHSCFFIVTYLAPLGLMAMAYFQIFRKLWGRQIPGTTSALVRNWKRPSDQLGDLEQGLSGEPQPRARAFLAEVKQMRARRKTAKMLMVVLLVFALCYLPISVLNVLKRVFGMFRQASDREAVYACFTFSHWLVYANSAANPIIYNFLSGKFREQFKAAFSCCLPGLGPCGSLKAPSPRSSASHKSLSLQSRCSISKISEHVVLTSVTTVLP
# protocol_text: Orexin receptor cell-based functional assay, [Ca2+]i by FLIPR, CHO-OX1 cells
# reported_conditions: CHO-OX1 cells, [Ca2+]i by FLIPR, antagonist dose-range 0.1 nM-10 μM, EC90 of OXA; read-out: OX1
endpoint_name: IC50 (nM)

>>> df
                                   compound  unit_abbreviation  numeric_result
0  Cc1ccc(-n2ccc(C)n2)c(C(=O)N2CCC[C@@H](C)[C@H]2CNc2nc3cc(Cl)ccc3o2)c1                 nM              16
1  Cc1ccc(-n2ccc(C)n2)c(C(=O)N2CCC[C@@H](C)[C@H]2CNc2ccc(Cl)cn2)c1                 nM              21
2  C[C@@H]1CCCN(C(=O)c2cccc(F)c2-c2ncccn2)[C@@H]1CNc1ccc(Cl)cn1                 nM               8

I = C[C@@H]1CCCN(C(=O)c2cccc(F)c2-c2ncccn2)[C@@H]1CNc1ccc(C(F)(F)F)cn1
II = Cc1ccc(-n2nccn2)c(C(=O)N2CC3CCCC3C2CNc2nc3cc(Cl)ccc3o2)c1 (stereo not drawn)
III = C[C@@H]1CCCN(C(=O)c2ccccc2-c2ncccn2)[C@@H]1CNc1ncc(C(F)(F)F)cn1
Exercise: Could you please sort these 3 entries by IC50 from high to low? Please list the labels according to the requested order.
Solution: II, I, III

A = Cc1nc(C(=O)N2CCC[C@@H](C)[C@H]2CNc2ncc(Cl)cn2)c(-c2ccc(F)cc2)s1
B = C[C@@H]1CCCN(C(=O)c2cc(Cl)ccc2-c2ncccn2)[C@@H]1CNc1ccc(Cl)cn1
Exercise: Compare the recorded IC50 of A and B ; state which is larger. Please reply using the label of the selected record.
Solution: B

###

# test_system: CYP3A4 (Homo sapiens, UniProt P08684)
# Construct: pre-incubated with human liver microsomes and NADPH; from tissue; host or cells: human liver microsomes
# Sequence (P08684 whole entry): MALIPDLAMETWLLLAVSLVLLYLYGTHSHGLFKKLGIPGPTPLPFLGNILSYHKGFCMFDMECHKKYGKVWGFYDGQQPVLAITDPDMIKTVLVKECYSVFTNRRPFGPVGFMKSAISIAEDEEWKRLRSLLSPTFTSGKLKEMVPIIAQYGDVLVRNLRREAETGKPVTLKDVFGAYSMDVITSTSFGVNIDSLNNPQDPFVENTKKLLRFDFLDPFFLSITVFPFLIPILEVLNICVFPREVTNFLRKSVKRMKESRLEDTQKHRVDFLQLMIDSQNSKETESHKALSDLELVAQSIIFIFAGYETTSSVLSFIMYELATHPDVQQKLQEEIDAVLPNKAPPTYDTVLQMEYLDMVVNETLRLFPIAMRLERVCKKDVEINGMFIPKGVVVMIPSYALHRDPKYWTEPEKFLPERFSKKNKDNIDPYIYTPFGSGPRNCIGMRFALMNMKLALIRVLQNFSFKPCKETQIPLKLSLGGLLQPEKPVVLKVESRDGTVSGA
# protocol_text: Cytochrome P450 inhibition assay (midazolam hydroxylation)
# Assay type: in vitro ADME
# reported_conditions: human, human liver microsomes, probe midazolam (hydroxylation to 1′-hydroxymidazolam), 10 μM test compound, midazolam at approximately its Km
endpoint_name: inhibition at 10 µM (%)

Recorded inhibition at 10 µM, per entry:
                                item_smiles        endpoint_name  numeric_result
0  Cc1ccc(-n2nccn2)c(C(=O)N2CCC[C@@H](C)[C@H]2CNc2nc3cc(F)ccc3o2)c1  inhibition at 10 µM              64
1  Cc1ccc(-n2nccn2)c(C(=O)N2CCC[C@@H](C)[C@H]2CNc2ncc3cc(C)ccc3n2)c1  inhibition at 10 µM              68

a = Cc1ccc(-n2cccn2)c(C(=O)N2CCC[C@@H](C)[C@H]2CNc2ncc(F)cn2)c1
b = Cc1ccc(-c2cnn(C)c2)c(C(=O)N2CCC[C@@H](C)[C@H]2CNc2nc3cc(Cl)ccc3o2)c1
Exercise: Compare the recorded inhibition at 10 µM of a and b ; state which is larger. Please reply using the label of the selected record.
Solution: b
